B1: Pistol ribozyme (parent)
chain: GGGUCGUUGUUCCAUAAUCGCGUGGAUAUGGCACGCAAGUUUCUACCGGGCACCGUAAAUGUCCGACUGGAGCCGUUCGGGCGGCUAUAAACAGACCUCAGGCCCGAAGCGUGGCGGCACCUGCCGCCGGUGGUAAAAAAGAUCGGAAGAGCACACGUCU

Variants of: B1
Test: aptazyme ON/OFF ratio, guanine; higher = stronger switching; co-transcriptional cleavage with and without guanine
Items are presented alongside their recorded aptazyme ON/OFF ratio.
Test Readout: aptazyme ON/OFF ratio

U7A U8C G9C U10C U11A C12U ... 1.03
U8C U10A U11C C12U ... 1.02
U8A G9A U10C U11A ... 1.33
U7G U8A G9C U10G U11A C12U C13U ... 1.03
U7G U8A G9U U11G C13G ... 1.02
G9U U10C C12A C13G ... 1.61
U7A U8G U10A U11C ... 1.11
U7G U8A U10A U11G C12U C13G ... 1.14
U7C U8G G9A U11A ... 1.18
U7A U8C G9C U11G C12A C13A ... 1.11
U7G U8G G9U U11G C13U ... 1.42
U7A U8C G9A U10G C12A C13A ... 1.24
U8A G9C U10C U11C C13A ... 1.02
U7A U10C U11A C12A C13G ... 1.23
U8C G9C U10A U11G C12G C13G ... 1.11
U7A U8A G9A U11A C12U C13A ... 1.07
U7A G9U U10A U11A C13A ... 1.17
U7A U8G G9C U10A C12G C13U ... 1.28
U8C G9U U10G U11G C12A C13U ... 1.17
U7A U8G G9U U10A C12U ... 1.4
U7C U8C G9C U10G U11A C12A ... 1.16
U7G U8A G9C C12U C13U ... 1.03

Value source: the RNAGym collection of RNA variant scans (doi:10.1021/acssynbio.7b00057)
